# Tested on: Glycine max
# EXPERIMENT: Inhibition of soybean LOX assessed as conversion of sodium linoleate to 13- hydroperoxylinoleic acid at 100 uM
The source made the active and inactive calls. The calls are words filed in the database; no cut-off is given here.
MEASURE_NAME: inhibition

Sample answers from the record:
{"COMPOUND": "CC(C(=O)NNC(=O)NCCc1ccccc1)c1cccc(Cc2ccccc2)c1 (configuration not stated)", "inhibition": "17%"}
{"COMPOUND": "CC(C(=O)NNC(=O)NO)c1cccc(Oc2ccccc2)c1 (configuration not stated)", "inhibition": "3%"}
{"COMPOUND": "CC(C)Cc1ccc(C(C)C(=O)NNC(=O)NC(c2ccccc2)c2ccccc2)cc1 (configuration not stated)", "inhibition": "46%"}
{"COMPOUND": "CC(C(=O)NNC(=O)NC1CCCCC1)c1cccc(Cc2ccccc2)c1 (configuration not stated)", "inhibition": "10%"}
{"COMPOUND": "CC(C)Cc1ccc(C(C)C(=O)NNC(=O)NOCc2ccccc2)cc1 (configuration not stated)", "inhibition": "inactive"}
{"COMPOUND": "CC(C(=O)NNC(=O)NC(c1ccccc1)c1ccccc1)c1cccc(Cc2ccccc2)c1 (configuration not stated)", "inhibition": "96%"}
{"COMPOUND": "CC(C(=O)NNC(=O)NCc1ccccc1)c1cccc(Cc2ccccc2)c1 (configuration not stated)", "inhibition": "inactive"}
{"COMPOUND": "CC(C(=O)NNC(=O)NO)c1cccc(Cc2ccccc2)c1 (configuration not stated)", "inhibition": "8%"}

Request: // query inhibition value for entry CC(C(=O)NNC(=O)NOCc1ccccc1)c1cccc(Oc2ccccc2)c1 (configuration not stated)
Response: 6%

Request: // query inhibition value for entry CC(C(=O)NN)c1cccc(Cc2ccccc2)c1 (configuration not stated)
Response: 10%

Request: // query inhibition value for entry CC(C)Cc1ccc(C(C)C(=O)NNC(=O)NNC(=O)NO)cc1 (configuration not stated)
Response: inactive

Request: // query inhibition value for entry CC(C(=O)NNC(=O)NNC(=O)NOCc1ccccc1)c1cccc(Oc2ccccc2)c1 (configuration not stated)
Response: inactive
